Provenance of the data: patent US7482360B2

// reported IC50 per item
- Measured Target: hmGluR1 receptor (Homo sapiens)
- Construct: expressed in transfected cells; host or cells: CHO
- Test Method Notes: IC50 Determination: intracellular calcium mobilization (FLIPR) in a CHO cell line stably expressing hmGluR1 receptor, against Quisqualate
- Format: cell-based
- Condition Info: CHO cells expressing hmGluR1; against Quisqualate 1 μM (EC80); compounds added 10 minutes before agonist; read-out: mGluR1 IC50 rating

Some solved entries appear below for comparison.
{"columns": ["Molecule", "Measured Target", "IC50"],
 "data": [
  ["O=c1c2sc3ncc4nc[nH]c4c3c2ncn1C1CCCCC1", "hmGluR1 receptor (Homo sapiens)", "20 to 100 nM"],
  ["COc1ccc(-n2cnc3c(sc4ncc5c(c43)NCCO5)c2=O)cc1 [Compound 38i]", "hmGluR1 receptor (Homo sapiens)", "< 20 nM"],
  ["C[C@@H]1CNc2c(cnc3sc4c(=O)n(-c5ccc(Cl)cc5)cnc4c23)O1 [Compound 38b]", "hmGluR1 receptor (Homo sapiens)", "< 20 nM"],
  ["O=c1c2sc3ncc4cc[nH]c4c3c2ncn1-c1ccc(Cl)cc1", "hmGluR1 receptor (Homo sapiens)", "< 20 nM"],
  ["Cc1ccc(-n2cnc3c(sc4ncc5ccn(C)c5c43)c2=O)cc1", "hmGluR1 receptor (Homo sapiens)", "20 to 100 nM"]
]}

## Input Which value of IC50 has been reported for `O=c1c2sc3ncc4nn[nH]c4c3c2ncn1C1CCCCC1` in the records?
## Output 100 to 1000 nM

====

- Measured Target: hmGluR1 receptor (Homo sapiens, UniProt Q13255)
- Construct: expressed in transfected cells; host or cells: CHO
- Sequence (Q13255 19-1194): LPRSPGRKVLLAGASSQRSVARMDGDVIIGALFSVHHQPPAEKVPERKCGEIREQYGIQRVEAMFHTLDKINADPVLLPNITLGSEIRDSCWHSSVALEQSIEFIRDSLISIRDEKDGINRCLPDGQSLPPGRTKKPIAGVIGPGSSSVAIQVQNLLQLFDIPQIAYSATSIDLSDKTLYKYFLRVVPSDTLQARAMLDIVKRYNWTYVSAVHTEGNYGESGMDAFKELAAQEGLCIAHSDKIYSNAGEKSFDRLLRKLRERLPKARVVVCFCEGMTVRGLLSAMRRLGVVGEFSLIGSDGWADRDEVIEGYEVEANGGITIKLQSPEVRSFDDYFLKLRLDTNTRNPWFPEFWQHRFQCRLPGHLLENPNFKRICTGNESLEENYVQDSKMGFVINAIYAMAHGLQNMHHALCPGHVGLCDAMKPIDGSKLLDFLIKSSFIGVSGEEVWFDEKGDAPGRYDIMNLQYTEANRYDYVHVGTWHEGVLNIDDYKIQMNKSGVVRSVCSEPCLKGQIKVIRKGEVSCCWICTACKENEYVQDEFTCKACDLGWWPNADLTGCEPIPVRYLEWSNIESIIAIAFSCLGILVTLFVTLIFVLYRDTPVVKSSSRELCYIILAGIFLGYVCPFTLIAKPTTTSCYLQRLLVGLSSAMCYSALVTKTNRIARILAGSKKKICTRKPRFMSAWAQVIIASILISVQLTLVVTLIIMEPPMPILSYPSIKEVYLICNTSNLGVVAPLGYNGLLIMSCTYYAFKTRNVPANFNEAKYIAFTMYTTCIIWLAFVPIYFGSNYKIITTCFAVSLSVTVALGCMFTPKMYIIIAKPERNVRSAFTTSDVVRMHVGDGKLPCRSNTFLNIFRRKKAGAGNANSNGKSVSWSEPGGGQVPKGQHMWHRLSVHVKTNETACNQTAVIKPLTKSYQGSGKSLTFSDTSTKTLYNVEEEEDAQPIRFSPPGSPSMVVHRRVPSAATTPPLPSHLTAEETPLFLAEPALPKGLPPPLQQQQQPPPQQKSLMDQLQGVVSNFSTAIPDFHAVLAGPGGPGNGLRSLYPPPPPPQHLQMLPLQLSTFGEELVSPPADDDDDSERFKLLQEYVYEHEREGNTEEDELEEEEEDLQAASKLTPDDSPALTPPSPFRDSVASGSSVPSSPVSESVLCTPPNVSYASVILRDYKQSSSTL
- Test Method Notes: IC50 Determination: intracellular calcium mobilization (FLIPR) in a CHO cell line stably expressing hmGluR1 receptor, against Quisqualate
- Type: cell-based
- Condition Info: CHO cells expressing hmGluR1; against Quisqualate 1 μM (EC80); compounds added 10 minutes before agonist; read-out: mGluR1 IC50 rating
pIC50: −log10 of the molar value.
// reported pIC50 per item

Some solved entries appear below for comparison.
{"columns": ["Compound", "pIC50"],
 "data": [
  ["Cc1ccc(-n2cnc3c(sc4ncc5cc[nH]c5c43)c2=O)cc1 [Compound 27a]", "> 7.70"],
  ["Cc1ccc(-n2cnc3c(sc4ncc5c(c43)OCC5)c2=O)cc1", "6.00 to 7.00"],
  ["Cc1ccc(-n2cnc3c(sc4ncc5sc(=O)[nH]c5c43)c2=O)cc1", "6.00 to 7.00"],
  ["Cc1ccc(-n2cnc3c(sc4ncc(Br)c(N(C)CCO)c43)c2=O)cc1 [Compound 37f]", "6.00 to 7.00"],
  ["Cn1cnc2cnc3sc4c(=O)n(C5CCCCC5)cnc4c3c21", "7.00 to 7.70"]
]}

## Input API: value(readout=pIC50, system=hmGluR1 receptor (Homo sapiens, UniProt Q13255)) for record O=c1c2sc3ncc4cn[nH]c4c3c2ncn1-c1ccc(Cl)cc1 [Compound 20a]
## Output 7.00 to 7.70

## Input API: value(readout=pIC50, system=hmGluR1 receptor (Homo sapiens, UniProt Q13255)) for record Cc1ccc(-n2cnc3c(sc4ncc5c(c43)NCCO5)c2=O)cc1 [Compound 38h]
## Output > 7.70
